List of Solubility values.
- runDescription: Solubility in PBS
- Assay type: physicochemical
- Protocol: After ultracentrifugation of the PBS solution, the supernatant was analyzed by HPLC and compared to an HPLC injection 50 μM peptide DMSO solution. Solubility was determined by: [(Area of PBS peak)/(Area of DMSO peak)]*50 uM.

- compound: "CC(=O)N1CCC[C@]12CC=CCCCC1(CCCC=CCCCOC(=O)N3CC[C@@](C(=O)N[C@@H](Cc4ccccc4Cl)C(=O)N[C@@H](Cc4csc5ccccc45)C(=O)N[C@@H](CO)C(N)=O)(C3)NC(=O)[C@H]([C@@H](C)O)NC(=O)[C@H](Cc3ccccc3)NC(=O)[C@H](CC(C)C)NC(=O)[C@H](CC(C)C)NC(=O)[C@H](CC(=O)O)NC(=O)[C@H](CC(=O)O)NC1=O)NC(=O)[C@H](Cc1ccccc1)NC(=O)[C@H](CC(=O)O)NC2=O (stereo partly drawn)"
  Solubility: "29 µM"
- compound: "CC(=O)N1CCC[C@]12CC=CCCCC1(CCCC=CCCCCCC[C@@](C)(C(=O)N[C@@H](Cc3ccccc3)C(=O)N[C@@H](Cc3csc4ccccc34)C(=O)N[C@@H](CCC(N)=O)C(N)=O)NC(=O)[C@H](CC(N)=O)NC(=O)[C@H](Cc3ccccc3)NC(=O)[C@H](C)NC(=O)[C@H](C)NC(=O)[C@H](CCC(=O)O)NC(=O)[C@H](CNS(C)(=O)=O)NC1=O)NC(=O)[C@H](C)NC(=O)[C@H](CC(=O)O)NC2=O (stereo partly drawn) [I-529]"
  Solubility: "50 µM"
- compound: "CC(=O)N1CCC[C@]12CC=CCCCC1(CCCC=CCCCCCC[C@@](C)(C(=O)N[C@@H](Cc3ccccc3)C(=O)N[C@@H](Cc3csc4ccccc34)C(=O)N[C@@H](CCC(N)=O)C(N)=O)NC(=O)[C@H](CCC(N)=O)NC(=O)[C@H](Cc3ccccc3)NC(=O)[C@H](C)NC(=O)[C@H](C)NC(=O)[C@H](CCC(=O)O)NC(=O)[C@H](CC(=O)O)NC1=O)NC(=O)[C@H](CC(C)C)NC(=O)[C@H](CC(=O)O)NC2=O (stereo partly drawn)"
  Solubility: "50 µM"
